assay: Metabolic stability in rat liver microsomes assessed as compound remaining at 1 uM after 30 mins; format: ADME, Microsome; conditions: read-out: Stability
Recorded Metric: remaining at 0.5 h, 1 µM (%)

In [3]: df
Out[3]:
                                   compound           recorded_metric  readout_number
0  CC[C@@H]1C(=O)N(C)c2cnc(-c3cn[nH]c3-c3nccs3)nc2N1c1cn[nH]c1  remaining at 0.5 h, 1 µM              48
1  CC[C@@H]1C(=O)N(C)c2cnc(-n3ccnc3-c3ccccc3)nc2N1[C@H]1CCOC1  remaining at 0.5 h, 1 µM              13
2  CCC1C(=O)N(C)c2cnc(-n3ccnc3-c3ccc(F)cc3)nc2N1c1ccc(C#N)cc1 (racemic)  remaining at 0.5 h, 1 µM              48

(a) CN1C(=O)C(CC(F)(F)F)N(CCC(F)(F)F)c2nc(-n3ccnc3-c3ccc(F)cc3)ncc21 (racemic)
(b) CC[C@@H]1C(=O)N(C)c2cnc(-n3ccnc3-c3ccc(F)cc3)nc2N1[C@H]1CCOC1
Which value of remaining at 0.5 h, 1 µM is numerically greater: that of a or that of b ? Reply with the label of the item you choose.
b
(b: 67%, a: 30%)

(A) CC[C@@H]1C(=O)N(C)c2cnc(-n3ccnc3-c3ccc(F)cc3)nc2N1c1ccn(C)n1
(B) CC[C@@H]1C(=O)N(C)c2cnc(-n3ccnc3-c3ccc(F)cc3)nc2N1c1cn[nH]c1
Record comparison, field remaining at 0.5 h, 1 µM: mark the lower of A and B . Reply with the label of the item you choose.
A

Origin of the recorded values: ChEMBL document CHEMBL2401733
